Target: variant enzyme L91D of undecaprenyl diphosphate synthase (Micrococcus luteus, UniProt O82827, L91D)
Construct: made in house; host or cells: E. coli; site-directed mutagenesis of pET22b/MLU-UPS
Experiment: Relative activity of variant enzyme L91D on initiating substrates
Format: biochemical, Micrococcus luteus B-P 26
Settings: index, activity of wild-type enzyme on same initiating substrate as 100; 12.5 μM initiating substrate, 1 hour, 37° C.
experimental.readout: Relative activity
Just the number, please.

Qu. Which Relative activity is reported for this compound? C/C(=C\COP(=O)(O)OP(=O)(O)O)CC/C=C(\C)CO[Si](C)(C)C(C)(C)C [Compound of formula (P)]
Ans. 112

Qu. Which Relative activity is reported for this compound? CCCCC(OC)/C(C)=C/CC/C(C)=C/COP(=O)(O)OP(=O)(O)O (centres unmarked) [Compound of formula (B)]
Ans. 231

Qu. Which Relative activity is reported for this compound? CCCCC(O)/C(C)=C/CC/C(C)=C/COP(=O)(O)OP(=O)(O)O (centres unmarked) [Compound of formula (C)]
Ans. 155

Qu. Which Relative activity is reported for this compound? CC[C@H](O)CC/C(C)=C/CC/C(C)=C/COP(=O)(O)OP(=O)(O)O [Compound of formula (D)]
Ans. 125

Qu. Which Relative activity is reported for this compound? CC[C@@H](O)CC/C(C)=C/CC/C(C)=C/COP(=O)(O)OP(=O)(O)O [Compound of formula (E)]
Ans. 320

Qu. Which Relative activity is reported for this compound? CCCSC/C(C)=C/CC/C(C)=C/COP(=O)(O)OP(=O)(O)O [Compound of formula (M)]
Ans. 123

Qu. Which Relative activity is reported for this compound? CCC(O)CC/C(C)=C/CC/C(C)=C/COP(=O)(O)OP(=O)(O)O [Compound of formula (R)]
Ans. 230

Qu. Which Relative activity is reported for this compound? CCC(CC/C(C)=C/CC/C(C)=C/COP(=O)(O)OP(=O)(O)O)C(C)=O [Compound of formula (S)]
Ans. 227

* * *

Please respond with reported Relative activity (%) for every item in the list.
Target: Sulfolobus acidocaldarius-derived geranylgeranyl diphosphate synthase (Sulfolobus acidocaldarius)
Construct: made in house; host or cells: E. coli BL21 (DE3)
Sequence (P39464 whole entry): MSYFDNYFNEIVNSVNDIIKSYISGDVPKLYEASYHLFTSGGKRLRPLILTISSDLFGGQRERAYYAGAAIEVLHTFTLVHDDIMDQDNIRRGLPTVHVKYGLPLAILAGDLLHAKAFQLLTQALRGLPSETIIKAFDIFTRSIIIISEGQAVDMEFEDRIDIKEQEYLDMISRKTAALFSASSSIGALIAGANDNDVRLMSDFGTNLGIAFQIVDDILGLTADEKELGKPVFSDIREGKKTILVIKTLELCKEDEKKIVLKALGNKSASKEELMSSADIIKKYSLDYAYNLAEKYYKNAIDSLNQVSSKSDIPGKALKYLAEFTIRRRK
Assay: Relative activity of geranylgeranyl diphosphate synthase on initiating substrates
Format: biochemical
Conditions: activity of the enzyme on farnesyl diphosphate as 100; 12.5 μM initiating substrate, pH 5.8, 1 hour, 55° C.
// return numeric value only (unit: %, not printed)

Qu. Which Relative activity (%) is reported for this compound? CCCCC(O)/C(C)=C/CC/C(C)=C/COP(=O)(O)OP(=O)(O)O (stereo not drawn)
Ans. 37.3

Qu. Which Relative activity (%) is reported for this compound? CC(C)=CCC/C(C)=C/CC/C=C/COP(=O)(O)OP(=O)(O)O [Initiating substrate 3]
Ans. 3.9

Qu. Which Relative activity (%) is reported for this compound? C/C=C/COP(=O)(O)OP(=O)(O)O [Initiating substrate 1, 2E-butenyl diphosphate]
Ans. 2.3

Qu. Which Relative activity (%) is reported for this compound? CCCCC(OC)/C(C)=C/CC/C(C)=C/COP(=O)(O)OP(=O)(O)O (stereo not drawn)
Ans. 70.6

Qu. Which Relative activity (%) is reported for this compound? CC(C)=CCC/C(C)=C/CC/C(C)=C/CC/C=C/COP(=O)(O)OP(=O)(O)O [Initiating substrate 4]
Ans. 1.4

Qu. Which Relative activity (%) is reported for this compound? CC(C)=CCC/C=C/COP(=O)(O)OP(=O)(O)O [Initiating substrate 2, 7-methyl-octa-2E,6E-dienyl diphosphate]
Ans. 2.5

* * *

Molecular target: variant enzyme L91N of undecaprenyl diphosphate synthase (Micrococcus luteus, UniProt O82827, L91N)
Construct: made in house; host or cells: E. coli; site-directed mutagenesis of pET22b/MLU-UPS
Sequence (O82827 whole entry L91N): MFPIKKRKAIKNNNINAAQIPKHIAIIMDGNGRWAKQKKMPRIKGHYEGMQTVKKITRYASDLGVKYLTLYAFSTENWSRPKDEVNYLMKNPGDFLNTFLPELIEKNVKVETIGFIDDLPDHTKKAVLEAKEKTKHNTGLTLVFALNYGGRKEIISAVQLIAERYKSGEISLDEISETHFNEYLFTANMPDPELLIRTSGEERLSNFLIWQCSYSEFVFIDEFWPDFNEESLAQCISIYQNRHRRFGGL
Assay: Relative activity of variant enzyme L91N on initiating substrates
Format: biochemical, Micrococcus luteus B-P 26
Settings: index, activity of wild-type enzyme on same initiating substrate as 100; 12.5 μM initiating substrate, 1 hour, 37° C.
experimental.readout: Relative activity
Just the number, please.

Qu. Which Relative activity is reported for this molecule? CC[C@@H](O)CC/C(C)=C/CC/C(C)=C/COP(=O)(O)OP(=O)(O)O [Compound of formula (E)]
Ans. 271

Qu. Which Relative activity is reported for this molecule? CCCCC(O)/C(C)=C/CC/C(C)=C/COP(=O)(O)OP(=O)(O)O (centres unmarked)
Ans. 108

Qu. Which Relative activity is reported for this molecule? `CCCSC/C(C)=C/CC/C(C)=C/COP(=O)(O)OP(=O)(O)O`
Ans. 139

Qu. Which Relative activity is reported for this molecule? `CC[C@H](O)CC/C(C)=C/CC/C(C)=C/COP(=O)(O)OP(=O)(O)O`
Ans. 103

Qu. Which Relative activity is reported for this molecule? CCC(O)CC/C(C)=C/CC/C(C)=C/COP(=O)(O)OP(=O)(O)O [Compound of formula (R)]
Ans. 137

* * *

Please respond with reported Relative activity for every item in the list.
Biological target: variant enzyme N77Q of undecaprenyl diphosphate synthase (Micrococcus luteus, UniProt O82827, N77Q)
Construct: made in house; host or cells: E. coli; site-directed mutagenesis of pET22b/MLU-UPS
Sequence (O82827 whole entry N77Q): as the sequence (O82827 whole entry L91N) above, with N77Q, N91L counted along it
Experiment: Relative activity of variant enzyme N77Q on initiating substrates
Type: biochemical, Micrococcus luteus B-P 26
Conditions: index, activity of wild-type enzyme on same initiating substrate as 100; 12.5 μM initiating substrate, 1 hour, 37° C.
Experimental: Reaction was performed under conditions shown below using each of the initiating substrates prepared in Production Examples 1 to 11 or farnesyl diphosphate. The activity of each variant enzyme on each initiating substrate was indicated by index with the activity of the wild-type enzyme (Micrococcus luteus B-P 26-derived undecaprenyl diphosphate synthase) as 100. After the reaction, liquid scintillation counting and TLC quantification were performed to measure the activity of each enzyme.
Just the number, please.

Qu. Which Relative activity is reported for this compound? `CC[C@H](O)CC/C(C)=C/CC/C(C)=C/COP(=O)(O)OP(=O)(O)O`
Ans. 124

Qu. Which Relative activity is reported for this compound? CCC(O)CC/C(C)=C/CC/C(C)=C/COP(=O)(O)OP(=O)(O)O [Compound of formula (R)]
Ans. 156

Qu. Which Relative activity is reported for this compound? `C/C(=C\COP(=O)(O)OP(=O)(O)O)CC/C=C(\C)COCc1ccccc1`
Ans. 133

Qu. Which Relative activity is reported for this compound? CC[C@@H](O)CC/C(C)=C/CC/C(C)=C/COP(=O)(O)OP(=O)(O)O [Compound of formula (E)]
Ans. 194

* * *

Molecular target: Bacillus stearothermophilus-derived farnesyl diphosphate synthase (Geobacillus stearothermophilus)
Construct: made in house; host or cells: E. coli BL21 (DE3)
Sequence (Q08291 whole entry): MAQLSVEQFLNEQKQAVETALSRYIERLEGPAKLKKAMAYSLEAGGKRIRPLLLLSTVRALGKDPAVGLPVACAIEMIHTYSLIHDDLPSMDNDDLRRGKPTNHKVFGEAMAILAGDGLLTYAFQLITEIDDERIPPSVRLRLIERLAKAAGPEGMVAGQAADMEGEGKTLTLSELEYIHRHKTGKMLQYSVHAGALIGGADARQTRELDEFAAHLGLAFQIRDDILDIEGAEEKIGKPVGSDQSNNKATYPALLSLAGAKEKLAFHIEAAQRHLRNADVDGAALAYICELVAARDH
Test: Relative activity of farnesyl diphosphate synthase on initiating substrates
Assay type: biochemical
Conditions: activity of the enzyme on geranyl diphosphate as 100; 12.5 μM initiating substrate, pH 8.5, 1 hour, 55° C.
experimental.readout: Relative activity (%)
// return numeric value only (unit: %, not printed)

Qu. Which Relative activity (%) is reported for this molecule? CC(C)=CCC/C(C)=C/CC/C=C/COP(=O)(O)OP(=O)(O)O [Initiating substrate 3]
Ans. 2.1

Qu. Which Relative activity (%) is reported for this molecule? CC(C)=CCC/C=C/COP(=O)(O)OP(=O)(O)O [Initiating substrate 2, 7-methyl-octa-2E,6E-dienyl diphosphate]
Ans. 3.2

Qu. Which Relative activity (%) is reported for this molecule? C/C=C/COP(=O)(O)OP(=O)(O)O [Initiating substrate 1, 2E-butenyl diphosphate]
Ans. 1.4

Qu. Which Relative activity (%) is reported for this molecule? CC(C)=CCC/C(C)=C/CC/C(C)=C/CC/C=C/COP(=O)(O)OP(=O)(O)O [Initiating substrate 4]
Ans. 0.7

* * *

Biological target: variant enzyme L91G of undecaprenyl diphosphate synthase (Micrococcus luteus, UniProt O82827, L91G)
Construct: made in house; host or cells: E. coli; site-directed mutagenesis of pET22b/MLU-UPS
Sequence (O82827 whole entry L91G): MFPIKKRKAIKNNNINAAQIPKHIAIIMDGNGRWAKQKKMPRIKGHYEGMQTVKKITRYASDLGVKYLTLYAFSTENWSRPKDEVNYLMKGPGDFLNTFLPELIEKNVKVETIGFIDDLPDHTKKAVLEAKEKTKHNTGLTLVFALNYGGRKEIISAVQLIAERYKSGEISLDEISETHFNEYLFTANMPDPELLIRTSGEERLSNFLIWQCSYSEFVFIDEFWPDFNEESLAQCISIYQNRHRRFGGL
Test: Relative activity of variant enzyme L91G on initiating substrates
Type: biochemical, Micrococcus luteus B-P 26
Settings: index, activity of wild-type enzyme on same initiating substrate as 100; 12.5 μM initiating substrate, 1 hour, 37° C.
experimental.readout: Relative activity
Just the number, please.

Qu. Which Relative activity is reported for this molecule? `CC[C@H](O)CC/C(C)=C/CC/C(C)=C/COP(=O)(O)OP(=O)(O)O`
Ans. 134

Qu. Which Relative activity is reported for this molecule? CCC(CC/C(C)=C/CC/C(C)=C/COP(=O)(O)OP(=O)(O)O)C(C)=O [Compound of formula (S)]
Ans. 130

Qu. Which Relative activity is reported for this molecule? CC[C@@H](O)CC/C(C)=C/CC/C(C)=C/COP(=O)(O)OP(=O)(O)O [Compound of formula (E)]
Ans. 170

Qu. Which Relative activity is reported for this molecule? CCCCC(O)/C(C)=C/CC/C(C)=C/COP(=O)(O)OP(=O)(O)O (stereo not shown)
Ans. 146

Data provenance is patent US9371342B2.
